Data provenance: the Human Domainome abundance scans (Beltran et al. 2025)

Readings of abundance fitness for the listed variants
B1: Retinoic acid receptor beta, residues 85 to 161; numbered along this chain, P10826 (parent)
chain: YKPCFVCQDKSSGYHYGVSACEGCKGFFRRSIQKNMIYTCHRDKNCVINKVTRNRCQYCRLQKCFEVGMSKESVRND

- Variants of: B1
- measurementNotes: abundance fitness (aPCA) (normalised: wild type 0, dead -1); higher = more abundant; growth selection in yeast, the domain comes from the species named
- assayContext: Homo sapiens
// print number alone

Solved entries:
seq: YKPCFVCQDKSSGYHYGVSACEGCKGFFRRSIQKNMIYTCHRDKNCVINKVTRNRNQYCRLQKCFEVGMSKESVRND [C56N]
abundance fitness: -0.953
//
seq: YKPCFVCQSKSSGYHYGVSACEGCKGFFRRSIQKNMIYTCHRDKNCVINKVTRNRCQYCRLQKCFEVGMSKESVRND [D9S]
abundance fitness: -0.71
//
seq: YKPCFVCQDKSSGYHYGVSACEGCKGFFRRSIQKNMIYTYHRDKNCVINKVTRNRCQYCRLQKCFEVGMSKESVRND [C40Y]
abundance fitness: -0.642
//
seq: YKPCFVCQDKSSGYHYGVSACEGCKGFFRRSLQKNMIYTCHRDKNCVINKVTRNRCQYCRLQKCFEVGMSKESVRND [I32L]
abundance fitness: -0.08
//
seq: YKPCFVCQDKSSGYHYGVSACEGCYGFFRRSIQKNMIYTCHRDKNCVINKVTRNRCQYCRLQKCFEVGMSKESVRND [K25Y]
abundance fitness: -0.047
//
seq: YKPCFVCQDKSSGYHYGVSACEGCKGFFRRSIQKNMIYTCHRDKNCVINKVTLNRCQYCRLQKCFEVGMSKESVRND [R53L]
abundance fitness: 0.148
//
seq: YKPCFVCQDKSSGYHYGVSACEGCKGFFRRSIDKNMIYTCHRDKNCVINKVTRNRCQYCRLQKCFEVGMSKESVRND [Q33D]
abundance fitness: 0.016
//
seq: YKPCFVCQDKSSGYHYGVSACEGCWGFFRRSIQKNMIYTCHRDKNCVINKVTRNRCQYCRLQKCFEVGMSKESVRND [K25W]
abundance fitness: 0.008
//
seq: YKPCFVCQDKSSGYHYGVSACEGCKGFFRRSIQKNMIYTEHRDKNCVINKVTRNRCQYCRLQKCFEVGMSKESVRND [C40E]
abundance fitness: -0.831
//
seq: YKPCFVCQDKSSGYHYGVSACEGCKKFFRRSIQKNMIYTCHRDKNCVINKVTRNRCQYCRLQKCFEVGMSKESVRND [G26K]
abundance fitness: -0.49

**Query** Give the value of abundance fitness reported for the following: YKPCFVCQDKSSGYHYGVSACEGCKGFFRRSIQKNMIYTCHRDKNCVINKVTRNRCQACRLQKCFEVGMSKESVRND [Y58A]
**Result** 0.107

**Query** Look up abundance fitness of KKPCFVCQDKSSGYHYGVSACEGCKGFFRRSIQKNMIYTCHRDKNCVINKVTRNRCQYCRLQKCFEVGMSKESVRND [Y1K] and report it.
**Result** 0.193

**Query** State, in one line, measured abundance fitness of YKPCFVCKDKSSGYHYGVSACEGCKGFFRRSIQKNMIYTCHRDKNCVINKVTRNRCQYCRLQKCFEVGMSKESVRND [Q8K]
**Result** 0

**Query** Please look at this variant and report its abundance fitness: YKPCFVCQDKSSGYHYGVSACEGCKGFFRRSIQKNMIYTCHRDKNCVINKVTRNRCVYCRLQKCFEVGMSKESVRND [Q57V]
**Result** -0.385

**Query** Please indicate abundance fitness recorded for YKPCFVCQDKSSCYHYGVSACEGCKGFFRRSIQKNMIYTCHRDKNCVINKVTRNRCQYCRLQKCFEVGMSKESVRND [G13C]
**Result** -0.334

**Query** Let me know recorded abundance fitness for YKPCFVCQRKSSGYHYGVSACEGCKGFFRRSIQKNMIYTCHRDKNCVINKVTRNRCQYCRLQKCFEVGMSKESVRND [D9R] , thanks.
**Result** -0.631

**Query** Tell me abundance fitness reported for YKPCFVCQDKSSGYHYGVSACEGCKGFFRRSIQDNMIYTCHRDKNCVINKVTRNRCQYCRLQKCFEVGMSKESVRND [K34D]
**Result** 0.33

**Query** For the variant YKPCFVCQDKSSGYHYGVSACEGCVGFFRRSIQKNMIYTCHRDKNCVINKVTRNRCQYCRLQKCFEVGMSKESVRND [K25V] , give its measured abundance fitness value.
**Result** 0.183

**Query** Specify abundance fitness for YKPCFVCQDKSSGYHYGVSACEGCKGFFRRSIQKNMIYTCHRDKNCVINKVTRNLCQYCRLQKCFEVGMSKESVRND [R55L] and stop.
**Result** 0.183

**Query** Provide only the value of recorded abundance fitness for YKPCFVCQDKSSGYHYYVSACEGCKGFFRRSIQKNMIYTCHRDKNCVINKVTRNRCQYCRLQKCFEVGMSKESVRND [G17Y]
**Result** 0.101

**Query** Tell me abundance fitness reported for YKPCFVCQDKSSGYHYGVSACEGCKGFFRRSIQKNMIYTCHRDKYCVINKVTRNRCQYCRLQKCFEVGMSKESVRND [N45Y]
**Result** -0.477

**Query** Retrieve abundance fitness measured for YKPCFVCQDKSSGYEYGVSACEGCKGFFRRSIQKNMIYTCHRDKNCVINKVTRNRCQYCRLQKCFEVGMSKESVRND [H15E] and print it.
**Result** -0.129

**Query** Hello, please tell me recorded abundance fitness for this one: YKPCFVCQDKSSGYHYGHSACEGCKGFFRRSIQKNMIYTCHRDKNCVINKVTRNRCQYCRLQKCFEVGMSKESVRND [V18H]
**Result** -0.433

**Query** For YKPCFVCQDKYSGYHYGVSACEGCKGFFRRSIQKNMIYTCHRDKNCVINKVTRNRCQYCRLQKCFEVGMSKESVRND [S11Y] , write its abundance fitness.
**Result** -0.407

**Query** Fill in abundance fitness for record YKPCFVCQDKSSGYHYGVSASEGCKGFFRRSIQKNMIYTCHRDKNCVINKVTRNRCQYCRLQKCFEVGMSKESVRND [C21S]
**Result** -0.933

**Query** Specify measured abundance fitness for YKPCFVCQDKSSGYHYGVSACEGCKRFFRRSIQKNMIYTCHRDKNCVINKVTRNRCQYCRLQKCFEVGMSKESVRND [G26R] .
**Result** -0.481

**Query** Indicate its recorded abundance fitness; the variant in question is YKPCFVCDDKSSGYHYGVSACEGCKGFFRRSIQKNMIYTCHRDKNCVINKVTRNRCQYCRLQKCFEVGMSKESVRND [Q8D]
**Result** 0.08

**Query** Tell me measured abundance fitness for YKPCFVCQDKSSGYHYGVSACEGCKGFFRRSIQKNMIYTCHRDKNCVINKVTRNRCQYCRKQKCFEVGMSKESVRND [L61K] please.
**Result** -0.946
